Documented EC50 (read off the curve) across a set of binders
- tested target: FGFR2 on SNU-16 gastric cancer cell line with FGFR2 amplification (UniProt P21802)
- test protocol: FACS on SNU-16 cells, % cells with FITC+ [cont.]
Respond numerically; units are µg/mL and should not be typed.

* M048-D01 (antibody, V domains shown, Parental bivalent monospecific antibody; also called Antibody A; Bayer) VH: EVQLLESGGGLVQPGGSLRLSCAASGFTFSSYAMSWVRQAPGKGLEWVSAISGSGTSTYYADSVKGRFTISRDNSKNTLYLQMNSLRAEDTAVYYCARVRYNWNHGDWFDPWGQGTLVTVSS VL: QSVLTQPPSASGTPGQRVTISCSGSSSNIGNNYVSWYQQLPGTAPKLLIYENYNRPAGVPDRFSGSKSGTSASLAISGLRSEDEADYYCSSWDDSLNYWVFGGGTKLTVLG | 0.1

Q: Param item = 10164 (antibody, V domains shown, the duobody scheme implies IgG1 with K409R or F405L; also called Antibody C; N10164) VH: QVQLVESGGGLVKPGGSLRLSCAASGFTFSSYALSWVRQAPGKGLEWVGRIRSKIDGGTTDYAAPVKGRFTISRDDSKNTLYLQMNSLKTEDTAVYYCARDRSPSDSSAFAIWGQGTLVTVSS VL: DIELTQPPSVSVSPGQTASITCSGDNLGSQYVDWYQQKPGQAPVLVIYDDNDRPSGIPERFSGSNSGNTATLTISGTQAEDEADYYCQSWDSLSVVFGGGTKLTVLG ; retrieve measured EC50 (read off the curve).
Ans: 0.02

Q: Param item = 2B 1.3.12 (antibody, V domains shown, the duobody scheme implies IgG1 with K409R or F405L; also called Antibody D; GE) VH: EVQLVESGGGLVQPGGSLRLSCAASGFPFTSTGISWVRQAPGKGLEWVGRTHLGDGSTNYADSVKGRFTISADTSKNTAYLQMNSLRAEDTAVYYCARTYGIYDTYDMYTEYVMDYWGQGTLVTVSS VL: DIQMTQSPSSLSASVGDRVTITCRASQDVDTSLAWYKQKPGKAPKLLIYSASFLYSGVPSRFSGSGSGTDFTLTISSLQPEDFATYYCQQSTGHPQTFGQGTKVEIK ; retrieve measured EC50 (read off the curve).
Ans: 0.3

Q: Param item = 12433 (antibody, V domains shown, the duobody scheme implies IgG1 with K409R or F405L; also called Antibody F; N12433) VH: QVQLVQSGAEVKKPGESLKISCKGSGYSFTNYYIHWVRQMPGKGLEWMGAIYPDNSDTTYSPSFQGQVTISADKSISTAYLQWSSLKASDTAMYYCARGADIWGQGTLVTVSS VL: DIQMTQSPSSLSASVGDRVTITCRASQDIDPYLSNWYQQKPGKAPKLLIYDASNLQSGVPSRFSGSGSGTDFTLTISSLQPEDFATYYCQQTTSHPYTFGQGTKVEIK ; retrieve measured EC50 (read off the curve).
Ans: 1
